Source: patent US8193224B2

I'd appreciate it if you could supply Selective toxicity values for the items below.
system: Leishmania donovani (MHOM/ET/67/L82 strain); assay: Leishmania protozoa growth inhibition screening test; assay type: cell-based; details: chemotherapy index = EC50 rat L6 cells / EC50 leishmania protozoa

Prompt: Consider the molecule CCN1/C(=C/C=c2\s/c(=C\c3sc4c5ccccc5ccc4[n+]3CC)n(CC)c2=O)Sc2ccc3ccccc3c21 . State its measured Selective toxicity.
Completion: 3600

Prompt: Consider the molecule CCN1C(C)=CS/C1=C\C=c1/s/c(=C\c2sc3ccccc3[n+]2CC)n(CC)c1=O . State its measured Selective toxicity.
Completion: 130

Prompt: Consider the molecule CCN1/C(=C/C=c2\s/c(=C\C3=[N+](CC)CCS3)n(CC)c2=O)C=Cc2ccccc21 . State its measured Selective toxicity.
Completion: 130

Prompt: Consider the molecule CCC[n+]1c(/C=c2\s/c(=C\C=C3/SCCN3CC)c(=O)n2CC)sc2c3ccccc3ccc21 . State its measured Selective toxicity.
Completion: 120

Prompt: Consider the molecule CCN1CCS/C1=C\C=c1/s/c(=C\c2sc3c4ccccc4ccc3[n+]2CCO)n(CC)c1=O . State its measured Selective toxicity.
Completion: 4800
